# system: human IgE; monoclonal antibody SE44 (human) (UniProt P01854)
# procedure-details: BIAcore, antibody captured by anti-human IgG, IgE SE44 as analyte
reported-endpoint: Ka (M⁻¹)
Give your result in M⁻¹ as a bare value.

Quick note, Ka for reshaped human C21 antibody C21-H3/L1 (antibody, V domains shown) VH: QVQLVQSGAEVKKPGASVKVSCKASGYTFSMYWLEWVRQAPGHGLEWVGEISPGTFTTNYNEKFKARATFTADTSTNTAYMELSSLRSEDTAVYYCARFSHFSG VL: DILLTQSPGTLSLSPGERATLSCRASQSIGTNIHWYQQKPGQAPRLLIKYASESISGIPSRFSGSGSGTDFTLTISRLEPEDFAMYY landed at 1.32e+10

Quick note, Ka for reshaped human C21 antibody C21-H1/L1 (antibody, V domains shown) VH: QVQLVQSGAEVKKPGASVKVSCKASGYTFSMYWLEWVKQRPGHGLEWVGEISPGTFTTNYNEKFKAKATFTADTSTNTAYMELSSLTSEDTAVYYCARFSHFSG VL: DILLTQSPGTLSLSPGERATLSCRASQSIGTNIHWYQQKPGQAPRLLIKYASESISGIPSRFSGSGSGTDFTLTISRLEPEDFAMYY landed at 8.7e+09

Entry source: patent US6072035
